Task for the reader: assign each of the following binders its reported koff.
Target: T1, human PD-1 (recombinant, titrated in BIAcore) (human, UniProt Q15116 25-170)
T1 construct: extracellular domain; also called recombinant human PD-1 extracellular domain
T1 sequence (Q15116 25-170): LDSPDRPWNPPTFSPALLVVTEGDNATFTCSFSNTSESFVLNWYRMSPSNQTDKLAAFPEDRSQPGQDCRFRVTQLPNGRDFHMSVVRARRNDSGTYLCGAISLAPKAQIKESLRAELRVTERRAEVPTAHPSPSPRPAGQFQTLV
Experiment: SPR BIAcore 3000; antibody captured by anti-human Fc, human PD-1 titrated;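 further: CM5 chip with amine-coupled goat anti-human Fc F(ab′)₂, HBS-EP running buffer at 10 µL/min, blank-surface-subtracted sensorgrams fitted in BIAevaluation 3.2 for kinetic constants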
Numbers only, in s⁻¹.

Below, 2 binders whose answers are already recorded.
949 VK3 gL11 gH1a (antibody, V domains shown, Humanised; human kappa constant (Km3)) VH: EVQLVQSGAEVKKPGASVKVSCKAFGYTFTTYPIEWMRQAHGQGLEWIGNFHPYNDDTKYNEKFKGRVTMTVDKSTTTVYMELSSLRSEDTAVYYCARENYGSHGGFVYWGQGTLVTVS VL: ENVLTQSPGTLSLSPGERATLSCRASSSVISSYLHWYQQKPGQAPRLWIYSTSNLASGVPDRFSGSGSGTSYTLTISRLEPEDFATYYCQQYNSYPLTFGGGTKVEIK; 0.00109
949 VK3 gL1 gH1a (antibody, V domains shown, Humanised; human kappa constant (Km3)) VH: EVQLVQSGAEVKKPGASVKVSCKAFGYTFTTYPIEWMRQAHGQGLEWIGNFHPYNDDTKYNEKFKGRVTMTVDKSTTTVYMELSSLRSEDTAVYYCARENYGSHGGFVYWGQGTLVTVS VL: ENVLTQSPGTLSLSPGERATLSCRASSSVISSYLHWYQQKPGQAPRLWIYSTSNLASGVPDRFSGSGSGTSYTLTISRLEPEDFATYYCQQYNGYPLTFGGGTKVEIK; 0.000844

Here's the next entry for you.
Per the record, 949 VK1 gL1 gH1b (antibody, V domains shown, Humanised; human kappa constant (Km3)) VH: EVQLVQSGAEVKKPGSSVKVSCKAFGYTFTTYPIEWMRQAHGQGLEWIGNFHPYNDDTKYNEKFKGRVTITVDKSTTTVYMELSSLRSEDTAVYYCARENYGSHGGFVYWGQGTLVTVS VL: ENVLTQSPFSLSASVGDRVTITCRASSSVISSYLHWYQQKPAKAPKLWIYSTSNLASGVPDRFSGSGSGTSYTLTISSLQPEDFATYYCQQYNGYPLTFGGGTKVEIK has koff of 0.000556
